system: Hepatitis C virus; assay: Antiviral activity against Hepatitis C virus J6/JFH infected in human Huh7.5 cells assessed as inhibition of extracellular infectivity drug treated every 24 hrs for 72 hrs measured after 72 hrs by luciferase reporter gene assay; type: functional, organism-based, Hepacivirus hominis; conditions: Huh-7
EC50 values, listed per item
Could you give me the number in µM? Just the number is fine.

MOLECULE	NUMERIC_VALUE
COc1cc(-c2cnc3c(N4CCOCC4)snc3c2)cc(OC)c1OC	2.13

Consider the additional molecule presented here.
-- ask Would you kindly share the measured EC50 for C#Cc1cccc(Nc2ncnc3cc(OCCOC)c(OCCOC)cc23)c1 [ERLOTINIB] ?
-- reply 0.5

Origin of values: ChEMBL document CHEMBL3425437
